Test: RP, Waters ACQUITY UPLC BEH C18, 100 × 2.1 mm, 1.7 µm, 0.3 mL/min, estimated dead time 0.73 min; A: water + 0.1% formic acid, pH 3; B: methanol + 0.1% formic acid, pH 3; gradient (min/%B) 0/10 14/90 16/90 18/10
Details: stereoisomer not certain
Attribute measured: LC retention time (min)
Numbers only, in min.

The following compounds have reported results that may help.
input: Query (compound): CC1(C)C(C(=O)OC(C#N)c2cccc(Oc3ccccc3)c2)C1(C)C (centres undefined) ; field requested: LC retention time
output: 13.7

input: Query (compound): COc1ccc(-c2ccccc2)cc1NNC(=O)OC(C)C [Bifenazate] ; field requested: LC retention time
output: 10.8

input: Query (compound): CCOP(=S)(OCC)SCS(=O)(=O)CC [Phorate sulfone] ; field requested: LC retention time
output: 8.76

Working through the 4 compounds below one at a time, give LC retention time for each.
1. CCOC(=O)c1ccccc1C(=O)OCC [Diethyl phthalate]
2. CC(C)N(Cc1ccccc1)C(=O)C(C)(C)C
3. O=C(Nc1ccccc1)N(Cc1ccc(Cl)cc1)C1CCCC1
4. O=C(NC(=O)c1c(F)cccc1F)Nc1cc(Cl)c(OC(F)(F)C(F)F)c(Cl)c1

output:
9.3
11.1
12.2
12.6

Working through the 2 compounds below one at a time, give LC retention time for each.
1. O=C1CN=C(c2ccccc2)c2cc(Cl)ccc2N1
2. N#Cc1c[nH]cc1-c1cccc2c1OC(F)(F)O2

output:
1. 10.5
2. 10.1
